Quick list: C-ss, pmol excised per min per mg protein per entry.
# Test system: [^3H]cytosine-labelled DNA
# TEST_DETAILS: Release of [3H]cytosine from ds or ss labelled DNA
# Type: biochemical
# RUN_CONDITIONS: single-stranded cytosine DNA, 6.5 μM, 10 min; 0 = below detection limit
ATTRIBUTE_MEASURED: C-ss, pmol excised per min per mg protein

MOLECULE	RESULT
Tyr147Phe: human UDG (UNGΔ84) mutant with Tyr147 replaced by Phe (protein) MGVFCLGPWGLGRKLRTPGKGPLQLLSRLCGDHLQAIPAKKAPAGQEEPGTPPSSPLSAEQLDRIQRNKAAALLRLAARNVPVGFGESWKKHLSGEFGKPYFIKLMGFVAEERKHYTVYPPPHQVFTWTQMCDIKDVKVVILGQDPFHGPNQAHGLCFSVQRPVPPPPSLENIYKELSTDIEDFVHPGHGDLSGWAKQGVLLLNAVLTVRAHQANSHKERGWEQFTDAVVSWLNQNSNGLVFLLWGSYAQKKGSAIDRKRHHVLQTAHPSPLSVYRGFFGCRHFSKTNELLQKSGKKPIDWKEL	0 pmol excised per min per mg protein
Asn204Gln: human UDG (UNGΔ84) mutant with Asn204 replaced by Gln (protein) MGVFCLGPWGLGRKLRTPGKGPLQLLSRLCGDHLQAIPAKKAPAGQEEPGTPPSSPLSAEQLDRIQRNKAAALLRLAARNVPVGFGESWKKHLSGEFGKPYFIKLMGFVAEERKHYTVYPPPHQVFTWTQMCDIKDVKVVILGQDPYHGPNQAHGLCFSVQRPVPPPPSLENIYKELSTDIEDFVHPGHGDLSGWAKQGVLLLQAVLTVRAHQANSHKERGWEQFTDAVVSWLNQNSNGLVFLLWGSYAQKKGSAIDRKRHHVLQTAHPSPLSVYRGFFGCRHFSKTNELLQKSGKKPIDWKEL	0 pmol excised per min per mg protein
